test: Toxicity liver stage against HepG2, at 10uM
Type: cell-based
Design: test concentration 10 uM, cell line HepG2-A16-CD81EGFP
details: human, HepG2-A16-CD81EGFP cells; read-out: INHIBITION
Exercise: for every item that follows, state its recorded cytotoxicity at 10 µM.
Please report the result as a number followed by the unit.

Exam item: Given COc1cccn(CC(=O)N(C)CCCOc2c(C)cccc2C)c1=O , state its recorded cytotoxicity at 10 µM.
Marked response: 5.27%

Exam item: Given COc1ccc2c(C)c(C(=O)NC3CCCOC3)oc2c1 (stereo unspecified) , state its recorded cytotoxicity at 10 µM.
Marked response: -7.28%

Exam item: Given CCc1nc(CN2CCCC(N(C)CCc3cccs3)C2)no1 (stereo unspecified) , state its recorded cytotoxicity at 10 µM.
Marked response: 15.5%

Exam item: Given Nc1cc(O)nc(CCNC(=O)CC[C@@H]2CCCN3CCCC[C@H]23)n1 , state its recorded cytotoxicity at 10 µM.
Marked response: -1.89%

Exam item: Given Cc1nnc(CN2C[C@H](NC(=O)C3CCOCC3)[C@@H](C(C)C)C2)s1 , state its recorded cytotoxicity at 10 µM.
Marked response: -3.41%

Exam item: Given O=C(C1CCCC1)N1CCN(Cc2nc(-c3ccco3)no2)CC1 , state its recorded cytotoxicity at 10 µM.
Marked response: -7.84%

Exam item: Given CCc1nc(C)cn1C(=O)Nc1ccc(F)cc1 , state its recorded cytotoxicity at 10 µM.
Marked response: 11.1%

Exam item: Given CN(CC1CCCCC1)C(=O)c1cn(C)nc1-c1cccnc1 , state its recorded cytotoxicity at 10 µM.
Marked response: 2.2%

Exam item: Given COc1ccnc(N2CCN(C(=O)c3csc(C)n3)CC2)n1 , state its recorded cytotoxicity at 10 µM.
Marked response: 0.313%

Exam item: Given CC(C)Nc1ncccc1C(=O)NC1CC(=O)N(CC(F)(F)F)C1 (stereo unspecified) , state its recorded cytotoxicity at 10 µM.
Marked response: -1.54%

Exam item: Given CCc1n[nH]c(C2CN(C(=O)Cc3cccs3)CCO2)n1 (stereo unspecified) , state its recorded cytotoxicity at 10 µM.
Marked response: 2.83%
